target: purified human Factor XIa (Homo sapiens (Human), UniProt P03951); experiment: biochemical; format: biochemical; conditions: read-out: Factor XIa Ki
Sequence (P03951 whole entry, looked up): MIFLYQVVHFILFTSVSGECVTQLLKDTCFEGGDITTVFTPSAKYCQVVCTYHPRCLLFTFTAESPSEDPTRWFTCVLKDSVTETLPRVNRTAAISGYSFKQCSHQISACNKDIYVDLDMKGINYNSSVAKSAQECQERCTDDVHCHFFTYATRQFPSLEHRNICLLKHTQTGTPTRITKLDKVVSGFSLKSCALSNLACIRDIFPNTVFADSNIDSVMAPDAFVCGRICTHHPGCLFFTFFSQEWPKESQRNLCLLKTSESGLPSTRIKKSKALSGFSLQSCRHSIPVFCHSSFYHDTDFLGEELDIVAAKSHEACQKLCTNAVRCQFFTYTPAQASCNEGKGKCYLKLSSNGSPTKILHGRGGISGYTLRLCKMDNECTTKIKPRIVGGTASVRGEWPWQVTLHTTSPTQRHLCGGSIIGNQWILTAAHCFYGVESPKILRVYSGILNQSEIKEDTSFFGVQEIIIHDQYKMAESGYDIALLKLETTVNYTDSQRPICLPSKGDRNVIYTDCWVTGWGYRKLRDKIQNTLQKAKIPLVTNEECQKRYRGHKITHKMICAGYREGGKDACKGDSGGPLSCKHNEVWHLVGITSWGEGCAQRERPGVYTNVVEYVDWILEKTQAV
Sequence (P03951 whole entry partner, looked up): as the sequence (P03951 whole entry, looked up) above
pKi: −log10 of the molar value. Where a name gives a salt, the structure may show the parent alone.
Reported pKi values for the following compounds.

- compound: "COC(=O)Nc1ccc2c(c1)NC(=O)[C@H](C)CCC[C@H](N1CCC(c3cncn3C)=CC1=O)c1cc-2ccn1 [Example 97, TFA salt]"
  pKi: "< 6.39"
- compound: "COC(=O)Nc1ccc2c(c1)NC(=O)[C@H](C)CCC[C@H](N1CCC(C3CCCCN3C)=CC1=O)c1cc-2ccn1 (stereo partly shown) [Example 158, TFA salt]"
  pKi: "< 6.39"
- compound: "C[C@@H]1CCC[C@H](N2CCC(c3c(F)ccc(Cl)c3F)=CC2=O)c2cc(ccn2)-c2cc(C(=O)O)c(N)cc2NC1=O [Example 198, TFA salt]"
  pKi: "> 10.30"
- compound: "COC(=O)c1ccc2c(c1)-c1cccc(c1)[C@@H](N1CCC(c3cccc(Cl)c3F)=CC1=O)CCC[C@@H](C)C(=O)N2"
  pKi: "< 6.38"
- compound: "C[C@@H]1CCC[C@H](N2CCC(c3c(F)ccc(Cl)c3F)=CC2=O)c2cc(ccn2)-c2cn[nH]c2NC1=O"
  pKi: "< 6.38"

Prompt line: Recall and state the measured pKi for `COC(=O)c1ccc2c(c1)-c1cccc(c1)[C@H](N1CCC(c3c(F)ccc(Cl)c3F)=CC1=O)CCC[C@@H](C)C(=O)N2` .
Response line: < 6.40

Prompt line: Report measured pKi; entry is COC(=O)c1cccc2c1-c1ccnc(c1)[C@@H](N1CCC(c3c(F)ccc(Cl)c3F)=CC1=O)CCC[C@@H](C)C(=O)N2 [Example 213, TFA salt]
Response line: < 6.38
